- testTarget: Proteinase-activated receptor 2 (Homo sapiens)
- Sequence (P55085 whole entry): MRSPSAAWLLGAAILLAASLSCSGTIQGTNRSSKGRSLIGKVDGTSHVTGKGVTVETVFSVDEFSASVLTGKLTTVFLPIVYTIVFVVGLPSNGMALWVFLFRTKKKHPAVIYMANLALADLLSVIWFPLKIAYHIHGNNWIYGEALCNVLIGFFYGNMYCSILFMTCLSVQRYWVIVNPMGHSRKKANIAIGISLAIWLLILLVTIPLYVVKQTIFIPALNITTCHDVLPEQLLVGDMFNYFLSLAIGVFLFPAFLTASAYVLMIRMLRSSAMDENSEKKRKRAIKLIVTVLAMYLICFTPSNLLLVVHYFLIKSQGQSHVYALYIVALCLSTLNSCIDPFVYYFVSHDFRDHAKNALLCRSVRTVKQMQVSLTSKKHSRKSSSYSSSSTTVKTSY
- procedureText: Antagonist activity at protease-activated receptor 2 (unknown origin) expressed in CHO-K1 cells assessed as inhibition of trypsin-induced calcium flux by FLIPR assay
- Format: functional, cell-based
metricName: IC50

Observe how each entry below is paired with its result.
chemicalString: CCCCCNc1nc(NCc2ccco2)c2cc(F)ccc2n1
IC50: 690 nM
--
chemicalString: Cc1ccoc1CNc1nc(Oc2cc(Cl)cc(Cl)c2)nc2ccc(F)cc12
IC50: 2800 nM

Below: the item to evaluate.
In: Record request: IC50 value, item COc1ccc2nc(Oc3ccc(Cl)cc3Cl)nc(NCc3occc3C)c2c1
Out: > 10000 nM
